Test protocol: folding stability dG unfold from trypsin proteolysis; higher = more stable
Assay endpoint: folding stability dG unfold (kcal/mol)
Give bare numbers, in kcal/mol.

Guide cases for folding stability dG unfold, answers given:
>  <Chain>
SSKIKEFIIKLPEKNKYYKIIVTPTEIYIYDENGKKIKKFSIPKNKKIKKIDIKIDKKKNKLIIKVYLEKSA [r9_939_TrMRF]

>  <Result value>
4.14

$$$$
>  <Chain>
SAGGSAGGSAGGSSVPADTVVELEFKDEKGEPLLITVRVTTKDSGVDRTVLEVRPPELLSAGGSAGGSAGGS [r10_744_JUSTAS]

>  <Result value>
0.00915

$$$$
>  <Chain>
SAMKTVTIKVTVEVTKNENGEEVKTVTVTLTLPEEEMTEEQLKELAKELADKLAEENNLTVKITKIEVTSAG [r14_190_TrROS_Hall]

>  <Result value>
3.27

$$$$
>  <Chain>
SAGGSPVVLTKSPDGLLYVVTLTDPANSLDRVKAKVTAYDPNKPVPLGELTIELDPKTGKAVSALSSAGGSA [r2_324_JUSTAS]

>  <Result value>
-0.543

$$$$
>  <Chain>
SAGGSMVIPTKVSSLEEAKQVAEEILKKLGRPLTLDDVSFDPEKFKAELKPDTPVVVKVKDPSGVTLGASAG [r5_503_JUSTAS]

>  <Result value>
0.457

$$$$
>  <Chain>
SAGGSAGGSADNKPFKVEIDVEHHPPNGYYRVTIEWPDGREIVVWMPGNPDEAKDQAKELISAGGSAGGSAG [r3_143_TrROS]

>  <Result value>
1.28

$$$$

Hi team, please reply with folding stability dG unfold for each item in this list.
1. SAGGSASMSNVTSYVTVYKKPGVDDLYYKVRILAPSEPKVIEIPESEIPKYEKEGIKIEKVSEELLSAGGSA [r15_783_JUSTAS]
2. SAGGKPLTVEDAKELAESLAKPLKEELGLGNVKILAAPVEVGGEEGKPAEVRIGFLFDLSEDGEFVGSAGGS [r16_751_TrMRF]
3. SKKVKITEITFPEGATFDGKKVTVTIKIVDEETGTVTITEITVDKNGKVTIKEVTVKVDPKTGKIVEITPSA [r9_122_TrROS_Hall]
4. SAGGSAGGSAGGSSSSASVEVKTETSVSYDPSTGRTYTTTTSKYPLTNTTVTTTTTDPTSAGGSAGGSAGGS [r10_187_JUSTAS]
5. SAGGSAGGSMRLTVEVSSLEEAEKLAEEIEERFDVEIVRVEVEETEEGGLRVTFDVKLHPDLGSAGGSAGGS [r12_577_TrMRF]
6. SAGPLPEDVAAGKPVDVEAPIPLRRKDGDLLAVFPITGPMTVKELLEVLEAIRERARELDLPPVEDLDRSAG [r5_606_TrMRF]
7. SAGGSAGGSAGSFVKGGTVYEIYKNPNTKKYTIVATPKNGKKYVFTFDSPEEAEKALKASSAGGSAGGSAGG [r11_238_TrMRF]

*A*
[0.901, -0.405, 1.74, 0.955, 2.96, 0.36, 1.65]

*Q* Provide folding stability dG unfold value for the following sequence: SAGGSAGGSAGGSNPVDIVEILSYDPEKNTYTFLVKLPDGSTKTITVPGLSVEEIKKELSAGGSAGGSAGGS [r4_357_JUSTAS]
*A* 1.57
